# protocolSummary: Turbidimetric kinetic solubility assay
# particulars: PBS, 1% DMSO, 37 °C, 2 h, estimated range
Provide the recorded Kinetic Solubility for the entries that follow.

// worked examples, Kinetic Solubility included
Clc1ncnc2ncn(Cc3cn(C[c-]4cccc4)nn3)c12.[Fe+2].c1cc[cH-]c1 [Compound 15a]: >100 µM
Nc1nc(Cl)c2c(ncn2Cc2cn(C[c-]3cccc3)nn2)n1.[Fe+2].c1cc[cH-]c1 [Compound 16a]: <1 µM
[Fe+2].c1cc[c-](-c2cn(CCn3ccc4c(N5CCCC5)ncnc43)nn2)c1.c1cc[cH-]c1 [Compound 34b]: 10 to 30 µM
CC([c-]1cccc1)n1cc(Cn2cnc3c(Cl)nc(N)nc32)nn1.[Fe+2].c1cc[cH-]c1 (centres unmarked) [Compound 14b]: 30 to 100 µM
[Fe+2].c1cc[c-](-c2cn(CCn3cnc4c(N5CCCC5)ncnc43)nn2)c1.c1cc[cH-]c1 [Compound 35b]: 30 to 100 µM
CC([c-]1cccc1)n1cc(Cn2ccc3c(Cl)ncnc32)nn1.[Fe+2].c1cc[cH-]c1 (centres unmarked) [Compound 11b]: 3 to 10 µM
Clc1ncnc2c1ncn2Cc1cn(-[c-]2cccc2)nn1.[Fe+2].c1cc[cH-]c1 [Compound 13c]: >100 µM
CC([c-]1cccc1)n1cc(Cn2cnc3ncnc(Cl)c32)nn1.[Fe+2].c1cc[cH-]c1 (centres unmarked) [Compound 15b]: >100 µM
CC([c-]1cccc1)n1cc(Cn2cnc3c(N)ncnc32)nn1.[Fe+2].c1cc[cH-]c1 (centres unmarked) [Compound 12b]: >100 µM
Clc1ncnc2c1ccn2Cc1cn(C[c-]2cccc2)nn1.[Fe+2].c1cc[cH-]c1 [Compound 11a]: <1 µM

For each listed entry, give its Kinetic Solubility.
1. Clc1ncnc2c1ncn2Cc1cn(C[c-]2cccc2)nn1.[Fe+2].c1cc[cH-]c1 [Compound 13a]
2. Nc1ncnc2c1ncn2Cc1cn(C[c-]2cccc2)nn1.[Fe+2].c1cc[cH-]c1 [Compound 12a]
3. Nc1nc(Cl)c2ncn(Cc3cn(-[c-]4cccc4)nn3)c2n1.[Fe+2].c1cc[cH-]c1 [Compound 14c]
4. Clc1ncnc2c1ncn2CCn1cc(-[c-]2cccc2)nn1.[Fe+2].c1cc[cH-]c1 [Compound 35a]

Resp:
[">100 µM", "30 to 100 µM", "<1 µM", "10 to 30 µM"]

====

Provide the recorded Papp (BA) for the entries that follow.
# Test system: MDCKII-hMDR1 cells
# protocolSummary: Permeability and P-gp substrate assessment in MDCKII-hMDR1 cell monolayer
# Format: in vitro ADME, canine
# particulars: without P-gp inhibitor, 10 µM, 60 min
One number for each entry, in cm/s.

Clc1ncnc2c1ncn2Cc1cn(C[c-]2cccc2)nn1.[Fe+2].c1cc[cH-]c1 [Compound 13a]: 2.38e-05
Clc1ncnc2c1ccn2Cc1cn(C[c-]2cccc2)nn1.[Fe+2].c1cc[cH-]c1 [Compound 11a]: 1.8e-05
CC([c-]1cccc1)n1cc(Cn2cnc3ncnc(Cl)c32)nn1.[Fe+2].c1cc[cH-]c1 (stereo not drawn) [Compound 15b]: 3.32e-05
CC([c-]1cccc1)n1cc(Cn2ccc3c(Cl)ncnc32)nn1.[Fe+2].c1cc[cH-]c1 (stereo not drawn) [Compound 11b]: 1.74e-05
Clc1ncnc2c1ccn2Cc1cn(-[c-]2cccc2)nn1.[Fe+2].c1cc[cH-]c1 [Compound 11c]: 1.49e-05

Here's the next entry for you.
Req: Requested read-out: Papp (BA). Entry: Clc1ncnc2ncn(Cc3cn(C[c-]4cccc4)nn3)c12.[Fe+2].c1cc[cH-]c1 [Compound 15a]
Resp: 3.35e-05

Recorded values, source paper PMC7180452.
